Would you mind telling me the reported response of each entry?
B1: AURKA-Venus WT [human] / TPX2 [human (endogenous in U2OS)] (parent complex)
chain 1: MDRSKENCISGPVKATAPVGGPKRVLVTQQFPCQNPLPVNSGQAQRVLCPSNSSQRIPLQAQKLVSSHKPVQNQKQKQLQATSVPHPVSRPLNNTQKSKQPLPSAPENNPEEELASKQKNEESKKRQWALEDFEIGRPLGKGKFGNVYLAREKQSKFILALKVLFKAQLEKAGVEHQLRREVEIQSHLRHPNILRLYGYFHDATRVYLILEYAPLGTVYRELQKLSKFDEQRTATYITELANALSYCHSKRVIHRDIKPENLLLGSAGELKIADFGWSVHAPSSRRTTLCGTLDYLPPEMIEGRMHDEKVDLWSLGVLCYEFLVGKPPFEANTYQETYKRISRVEFTFPDFVTEGARDLISRLLKHNPSQRPMLREVLEHPWITANSSKPSNCQNKESASKQS
chain 2: MSQVKSSYSYDAPSDFINFSSLDDEGDTQNIDSWFEEKANLENKLLGKNGTGGLFQGKTPLRKANLQQAIVTPLKPVDNTYYKEAEKENLVEQSIPSNACSSLEVEAAISRKTPAQPQRRSLRLSAQKDLEQKEKHHVKMKAKRCATPVIIDEILPSKKMKVSNNKKKPEEEGSAHQDTAEKNASSPEKAKGRHTVPCMPPAKQKFLKSTEEQELEKSMKMQQEVVEMRKKNEEFKKLALAGIGQPVKKSVSQVTKSVDFHFRTDERIKQHPKNQEEYKEVNFTSELRKHPSSPARVTKGCTIVKPFNLSQGKKRTFDETVSTYVPLAQQVEDFHKRTPNRYHLRSKKDDINLLPSKSSVTKICRDPQTPVLQTKHRARAVTCKSTAELEAEELEKLQQYKFKARELDPRILEGGPILPKKPPVKPPTEPIGFDLEIEKRIQERESKKKTEDEHFEFHSRPCPTKILEDVVGVPEKKVLPITVPKSPAFALKNRIRMPTKEDEEEDEPVVIKAQPVPHYGVPFKPQIPEARTVEICPFSFDSRDKERQLQKEKKIKELQKGEVPKFKALPLPHFDTINLPEKKVKNVTQIEPFCLETDRRGALKAQTWKHQLEEELRQQKEAACFKARPNTVISQEPFVPKKEKKSVAEGLSGSLVQEPFQLATEKRAKERQELEKRMAEVEAQKAQQLEEARLQEEEQKKEELARLRRELVHKANPIRKYQGLEIKSSDQPLTVPVSPKFSTRFHC

Variants of: B1
MEASUREMENT NOTES: in situ proximity ligation assay (isPLA); mitotic U2OS cells, endogenous TPX2, n ≥ 10 cells; read off a plot

Give reported response value for chain 1 S155R
~2.6 AU

Give reported response value for chain 1 R371A
~3 AU

Give reported response value for chain 1 L374I
~3.7 AU
